Target: Acetylcholinesterase (Electrophorus electricus, UniProt O42275)
Sequence (O42275 whole entry): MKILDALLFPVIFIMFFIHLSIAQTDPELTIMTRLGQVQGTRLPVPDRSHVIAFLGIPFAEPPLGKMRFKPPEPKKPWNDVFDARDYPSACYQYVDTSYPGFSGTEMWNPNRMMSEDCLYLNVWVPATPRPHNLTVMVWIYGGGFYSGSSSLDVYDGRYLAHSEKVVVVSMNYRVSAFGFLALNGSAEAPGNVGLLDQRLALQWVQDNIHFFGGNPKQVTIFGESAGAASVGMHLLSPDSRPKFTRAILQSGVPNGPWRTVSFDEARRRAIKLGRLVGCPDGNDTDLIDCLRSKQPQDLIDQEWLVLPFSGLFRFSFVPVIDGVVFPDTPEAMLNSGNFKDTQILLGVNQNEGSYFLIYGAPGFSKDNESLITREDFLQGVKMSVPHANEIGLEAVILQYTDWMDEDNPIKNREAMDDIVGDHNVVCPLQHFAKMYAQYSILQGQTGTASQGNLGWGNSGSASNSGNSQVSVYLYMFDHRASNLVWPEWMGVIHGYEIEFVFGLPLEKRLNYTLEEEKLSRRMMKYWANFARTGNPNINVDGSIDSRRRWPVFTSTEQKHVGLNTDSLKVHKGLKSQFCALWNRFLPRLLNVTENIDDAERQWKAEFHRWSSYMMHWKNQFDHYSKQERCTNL
MEASUREMENT LABEL: IC50 (µM)
Report as a plain number; the unit µM is understood.

Given C=C1CC[C@H]2C(C)(C)CCC[C@]2(C)[C@H]1Cc1occc1C , report its IC50 on Acetylcholinesterase (Electrophorus electricus, UniProt O42275).
64.4
